Collected IC50 values appear next to each entry.
- system-tested: CETP (Homo sapiens)
- Construct: made in house; host or cells: CHO cells (serum-free conditioned medium)
- Sequence (P11597 18-493): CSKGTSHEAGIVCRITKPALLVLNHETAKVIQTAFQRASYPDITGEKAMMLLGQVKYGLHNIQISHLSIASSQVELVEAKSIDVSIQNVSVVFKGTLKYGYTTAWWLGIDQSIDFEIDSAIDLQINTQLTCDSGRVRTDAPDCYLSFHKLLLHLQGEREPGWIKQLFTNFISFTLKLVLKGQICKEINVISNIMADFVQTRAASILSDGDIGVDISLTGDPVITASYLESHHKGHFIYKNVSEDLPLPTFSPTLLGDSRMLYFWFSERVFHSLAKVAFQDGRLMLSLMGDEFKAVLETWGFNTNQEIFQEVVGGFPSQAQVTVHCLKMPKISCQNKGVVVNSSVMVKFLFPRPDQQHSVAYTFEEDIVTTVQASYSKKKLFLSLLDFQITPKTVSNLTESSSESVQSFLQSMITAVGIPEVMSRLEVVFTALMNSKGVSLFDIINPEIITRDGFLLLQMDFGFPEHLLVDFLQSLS
- measurement-notes: CETP activity in vitro: transfer of [3H]CE from HDL donor to LDL acceptor particles
- Format: biochemical
- study-conditions: Table 8; read-out: IC50

compound: CC(C)c1ccc(C(O)c2c(C(F)(F)F)nc(C(F)F)c(CO)c2-c2ccccc2)cc1 (stereo not drawn)
IC50: > 100 µM
--
compound: OCc1c(C(F)F)nc(C(F)(F)F)c(C(O)c2ccc(Cl)cc2)c1-c1ccccc1 (stereo not drawn)
IC50: > 100 µM
--
compound: OCc1c(C(F)F)nc(C(F)(F)F)c(C(O)c2ccc3ccccc3c2)c1-c1ccccc1 (stereo not drawn)
IC50: > 100 µM

Source of measurements: patent US6794396B2
